Some variants, each annotated with its measured protein stability index.
B1: CLINT1 (parent)
chain: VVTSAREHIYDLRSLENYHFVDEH

Variants of: B1
test-name: protein stability index of a GFP-peptide fusion (GPS, HEK-293T) (PSI 1-6); higher = more stable;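 also: lentivirally expressed fusions sorted by FACS into six bins by GFP to DsRed ratio, PSI derived from sequencing read proportions per bin multiplied by bin number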
experimental-conditions: c terminus: a fixed tail appended
Please reply with the value in numeric form only.

>>> print(df.to_string())
           sequence_content        measured_property  test_result
0  VVTSARVHIYDLRSLENYHFVDEH  protein stability index         2.26
1  VVTSAREHIYDLRSLENCHFVDEH  protein stability index          3.3
2  VVTSARRHIYDLRSLENYHFVDEH  protein stability index         2.07

INPUT: # get_value(readout='protein stability index', item= `VVTSAREHIYDLRSCENYHFVDEH` )
OUTPUT: 3.05

INPUT: Fill blank: measured protein stability index of the variant `VVTAAREHIYDLRSLENYHFVDEH` is ____.
OUTPUT: 2.41

INPUT: Please give the measured protein stability index for this variant: `VVTSAREHIYDLRSLEAYHFVDEH`
OUTPUT: 2.95

INPUT: Find the recorded protein stability index belonging to `VVTSAREHIYDDRSLENYHFVDEH` and report it.
OUTPUT: 4.08

INPUT: Which protein stability index value is on record for `VVTSKREHIYDLRSLENYHFVDEH` ?
OUTPUT: 2.36

Values were extracted from the supplement of paper PMC10567573.
